Biological target: PLK3 (Homo sapiens)
Sequence (Q9H4B4 whole entry): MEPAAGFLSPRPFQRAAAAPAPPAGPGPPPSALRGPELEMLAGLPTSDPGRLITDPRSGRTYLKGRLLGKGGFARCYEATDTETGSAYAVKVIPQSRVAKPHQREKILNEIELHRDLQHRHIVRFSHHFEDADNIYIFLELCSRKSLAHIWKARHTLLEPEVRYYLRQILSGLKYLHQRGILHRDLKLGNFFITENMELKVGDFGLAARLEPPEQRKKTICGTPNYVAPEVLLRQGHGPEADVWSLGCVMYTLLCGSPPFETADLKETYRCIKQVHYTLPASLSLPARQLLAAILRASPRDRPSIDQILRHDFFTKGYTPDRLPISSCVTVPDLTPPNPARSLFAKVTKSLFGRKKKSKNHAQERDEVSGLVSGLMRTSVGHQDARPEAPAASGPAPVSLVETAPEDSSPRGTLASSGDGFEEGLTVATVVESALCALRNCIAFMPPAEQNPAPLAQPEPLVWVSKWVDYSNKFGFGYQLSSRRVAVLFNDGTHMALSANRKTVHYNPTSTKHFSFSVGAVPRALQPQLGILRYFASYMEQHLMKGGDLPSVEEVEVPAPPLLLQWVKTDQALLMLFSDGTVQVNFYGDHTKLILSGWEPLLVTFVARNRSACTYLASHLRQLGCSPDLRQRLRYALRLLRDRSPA
Test: PLK TR-FRET peptide assay, PLK3
Assay type: biochemical
Settings: GST-PLK3, 15 min reaction, read-out: Plk3 IC50
pIC50: −log10 of the molar value.
Below, each entry is listed with its recorded pIC50.

The examples below pair each entry with its known result.
# COMPOUND, pIC50
rows = [
    ("CC[C@@]12CCCN1c1nc(-n3ccnc3)ncc1N(C)C2=O", "< 4.30"),
    ("CC[C@@]12CCCCN1c1nc(-n3ccnc3-c3cc(F)cc(F)c3)ncc1N(C)C2=O", "< 4.30"),
    ("CC[C@@H]1C(=O)N(C)c2cnc(-c3cccc(C(=O)N(C)C)c3)nc2N1C1CCCC1", "< 4.30"),
    ("CCC1C(=O)N(C)c2cnc(-n3ccnc3)nc2N1c1cccc(-n2cccn2)c1 (centres unmarked)", "< 4.30"),
    ("CC[C@@H]1C(=O)N(C)c2cnc(-n3ccnc3C3=CCOCC3)nc2N1C1CCCC1", "4.30 to 5.00"),
    ("CC[C@@H]1C(=O)N(C)c2cnc(-c3ccccc3-c3ccccc3)nc2N1C1CCCC1", "> 6.00"),
]

// Input: CC[C@]12CCCCN1c1nc(-n3ccnc3-c3cccc(F)c3F)ncc1N(C)C2=O . Output its pIC50 only. < 4.30

// Input: CC[C@@H]1C(=O)N(C)c2cnc(-n3ccnc3-c3ccc(F)cn3)nc2N1CCC(F)(F)F . Output its pIC50 only. < 4.30

// Input: CC[C@@H]1C(=O)N(C)c2cnc(-n3cnc(-c4nccs4)c3)nc2N1C1CCCC1 . Output its pIC50 only. 5.00 to 6.00

// Input: CC[C@H]1C(=O)N(C)c2cnc(-n3ccnc3-c3ccc(F)cc3)nc2N1c1cccc(C#N)c1 . Output its pIC50 only. 4.30 to 5.00

// Input: CC[C@@H]1C(=O)N(C)c2cnc(-c3cn[nH]c3-c3ccccn3)nc2N1C(C)C . Output its pIC50 only. 5.00 to 6.00
